molecular target: Recombinant human his-tagged IGF 1R extracellular domain protein (human) (UniProt P08069); test: SPR, captured IgG, IGF-1R ECD-his analyte, dissociation pH 7.4
ATTRIBUTE_MEASURED: Kd

As a guide, the following entries are already answered.
# BINDER, Kd
rows = [
    ("VRDN-02526 (antibody, V domains shown) VH: EVQLVQSGGGLVKPGGSLRLSCAASGFTFSSFAMHWVRQAPGKGLEWISVIDTRGATYYADSVKGRFTISRDNAKNSLYLQMNSLRAEDTAVYYCARLGNFYYGMHVWGQGTTVTVSS VL: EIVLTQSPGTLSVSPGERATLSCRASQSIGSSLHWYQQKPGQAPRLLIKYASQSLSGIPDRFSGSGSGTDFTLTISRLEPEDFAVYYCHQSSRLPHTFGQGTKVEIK", "0.00543 nM"),
    ("VRDN-02567 (antibody, V domains shown) VH: EVQLVQSGGGLVKPGGSLRLSCAASGFTFSSFAMHWVRQAPGKGLEWISVIDTRGATYYADSVKGRFTISRDNAKNSLYLQMNSLRAEDTAVYYCARLGNFYYHHDVWGQGTTVTVSS VL: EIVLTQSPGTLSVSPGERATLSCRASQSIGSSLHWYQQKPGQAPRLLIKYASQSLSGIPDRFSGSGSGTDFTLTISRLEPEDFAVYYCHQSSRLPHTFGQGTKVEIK", "2.77 nM"),
    ("VRDN-02531 (antibody, V domains shown) VH: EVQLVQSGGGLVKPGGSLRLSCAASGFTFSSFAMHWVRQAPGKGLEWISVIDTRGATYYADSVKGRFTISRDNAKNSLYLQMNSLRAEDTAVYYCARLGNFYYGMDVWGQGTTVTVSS VL: EIVLTQSPGTLSVSPGERATLSCRASHSIGSSLHWYQQKPGQAPRLLIKYASQSLSGIPDRFSGSGSGTDFTLTISRLEPEDFAVYYCHQSSRLPHTFGQGTKVEIK", "0.85 nM"),
]

Data request: Provide measured Kd value, entry: VRDN-02530 (antibody, V domains shown) VH: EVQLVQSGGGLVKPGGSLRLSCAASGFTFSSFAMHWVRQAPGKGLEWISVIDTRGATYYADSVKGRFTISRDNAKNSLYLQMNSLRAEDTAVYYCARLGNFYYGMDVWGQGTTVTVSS VL: EIVLTQSPGTLSVSPGERATLSCRAHQSIGSSLHWYQQKPGQAPRLLIKYASQSLSGIPDRFSGSGSGTDFTLTISRLEPEDFAVYYCHQSSRLPHTFGQGTKVEIK
Data returned: 0.102 nM

Data request: Give me measured Kd, please, for this binder: VRDN-02523 (antibody, V domains shown) VH: EVQLVQSGGGLVKPGGSLRLSCAASGFTFSSFAMHWVRQAPGKGLEWISVIDTRGATYYADSVKGRFTISRDNAKNSLYLQMNSLRAEDTAVYYCARLGNFYHGMDVWGQGTTVTVSS VL: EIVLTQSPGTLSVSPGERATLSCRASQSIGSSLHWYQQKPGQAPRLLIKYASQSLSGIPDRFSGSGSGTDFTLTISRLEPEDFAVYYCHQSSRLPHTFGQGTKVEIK
Data returned: 0.717 nM
